The values you see were collected from patent US20240383875A1.

Entries with their measured pIC50, system SIK2 (Homo sapiens, UniProt Q9H0K1):
Give only the number. pIC50 is defined as minus log10 of concentration in molar units.

compound=Cc1ccc(Nc2ccc3ncn(-c4ccc(CO)c(-n5nc(C#N)cc5C)n4)c3c2)nn1 endpoint_label=pIC50 test_result=6.68

For SIK2 (Homo sapiens, UniProt Q9H0K1), provide pIC50 of Cc1ccc(Nc2ccc3c(c2)ncn3-c2ccc(C(C)O)c(-c3cn(C(F)F)nc3C)n2)nn1 (stereo not shown) please.
8.08

For SIK2 (Homo sapiens, UniProt Q9H0K1), provide pIC50 of CNC(=O)c1cc(C)n(-c2nc(-n3cnc4ccc(Nc5ccc(C)nn5)cc43)ccc2C(C)O)n1 (stereo not shown) please.
5.23

For SIK2 (Homo sapiens, UniProt Q9H0K1), provide pIC50 of Cc1ccc(Nc2ccc3c(c2)ncn3-c2ccc(C(C)O)c(-c3cncc(C#N)c3)n2)nn1 (stereo not shown) please.
7.44

For SIK2 (Homo sapiens, UniProt Q9H0K1), provide pIC50 of CCn1ncc(-c2nc(-n3cnc4cc(Nc5ccc(C)nn5)ccc43)ccc2C(C)O)c1C (stereo not shown) please.
8.14

For SIK2 (Homo sapiens, UniProt Q9H0K1), provide pIC50 of CNC(=O)c1cc(C)n(-c2nc(-n3cnc4cc(Nc5ccc(C)nn5)ccc43)ccc2C(C)O)n1 (stereo not shown) please.
7.09

For SIK2 (Homo sapiens, UniProt Q9H0K1), provide pIC50 of `Cc1ccc(Nc2cc3ncn(-c4ccc(CO)c(-n5nc(C(F)F)cc5C)n4)c3cc2F)nn1` please.
8.17

For SIK2 (Homo sapiens, UniProt Q9H0K1), provide pIC50 of Cc1ccc(Nc2ccc3ncn(-c4ccc(C(C)O)c(N5CC[C@H]6NCC[C@@H]65)n4)c3c2)nn1 (stereo partly shown) please.
7.13

For SIK2 (Homo sapiens, UniProt Q9H0K1), provide pIC50 of Cc1ccc(Nc2cc3c(cc2OC2COC2)ncn3-c2ccc(C(C)O)c(-n3nc(OC(F)F)cc3C)n2)nn1 (stereo not shown) please.
7.22

For SIK2 (Homo sapiens, UniProt Q9H0K1), provide pIC50 of CCn1nc(C(F)(F)F)cc1-c1nc(-n2cnc3cc(Nc4ccc(C)nn4)ccc32)ccc1C(C)O (stereo not shown) please.
7.60

###

Entries with their measured log10 of IC50, system UniProt Q9H0K1:
Short version: log10 scale, IC50, nM.

Some entries whose results are on file:
compound="Cc1cc(C#N)nn1-c1nc(-n2cnc3ccc(OC4CCN(C5COC5)CC4)cc32)ccc1C(C)O (stereo not shown) [Example 114]" target_of_assay="UniProt Q9H0K1" endpoint_label="log10 of IC50" test_result=1.67
compound="COc1cc2ncn(-c3ccc(C(O)C4CC4)c(-c4cccc(Cl)c4)n3)c2cc1OC (stereo not shown) [Example 25]" target_of_assay="UniProt Q9H0K1" endpoint_label="log10 of IC50" test_result=2.78
compound="COc1cc2ncn(-c3ccc([C@@H](C)O)c(-c4ccc(C#N)cc4)n3)c2cc1OC [Example 40]" target_of_assay="UniProt Q9H0K1" endpoint_label="log10 of IC50" test_result=2.71

State the recorded log10 of IC50 for this entry: Cc1ccc(Nc2cc3c(cc2F)ncn3-c2ccc(C(C)O)c(-n3nc(Cl)cc3C)n2)nn1 (stereo not shown) [Example 354]
1.90

State the recorded log10 of IC50 for this entry: COc1nn(C)cc1-c1ccc2c(c1)ncn2-c1ccc(C(C)O)c(-n2nc(C#N)cc2C)n1 (stereo not shown) [Example 334]
0.20

State the recorded log10 of IC50 for this entry: Cc1ccc(Nc2ccc3c(c2)ncn3-c2ccc([C@@H](C)O)c(-n3nc(C(F)F)cc3C)n2)nn1 [Example 230]
1.86

###

Entries with their measured pIC50, system SIK1 (Homo sapiens, UniProt P57059):
Give only the number. pIC50 is defined as minus log10 of concentration in molar units.

State the recorded pIC50 for this entry: Cc1cc(C#N)nn1-c1nc(-n2cnc3cc(N4CC[C@@H](O)C4)ccc32)ccc1C(C)O (some centres unmarked)
7.55

State the recorded pIC50 for this entry: Cc1ccc(Nc2ccc3c(c2)ncn3-c2ccc(C(C)O)c(-c3cnn4c3C(=O)NCC4)n2)nn1 (centres unmarked)
4.88

State the recorded pIC50 for this entry: Cc1cc(C#N)nn1-c1nc(-n2cnc3cc(Nc4ccc(OC(F)F)nn4)ccc32)ccc1C(C)O (centres unmarked)
7.82

State the recorded pIC50 for this entry: Cc1cc(C#N)nn1-c1nc(-n2cnc3cc(-c4cnc(N5CCCC5=O)o4)ccc32)ccc1C(C)O (centres unmarked)
8.00

State the recorded pIC50 for this entry: `Cc1ccc(Nc2cc3ncn(-c4ccc([C@H](C)O)c(-n5nc(C#N)cc5C)n4)c3cc2OC(F)F)nn1`
8.30

###

# Target Of Assay: SIK1 (Homo sapiens, UniProt P57059)
# Sequence (P57059 whole entry): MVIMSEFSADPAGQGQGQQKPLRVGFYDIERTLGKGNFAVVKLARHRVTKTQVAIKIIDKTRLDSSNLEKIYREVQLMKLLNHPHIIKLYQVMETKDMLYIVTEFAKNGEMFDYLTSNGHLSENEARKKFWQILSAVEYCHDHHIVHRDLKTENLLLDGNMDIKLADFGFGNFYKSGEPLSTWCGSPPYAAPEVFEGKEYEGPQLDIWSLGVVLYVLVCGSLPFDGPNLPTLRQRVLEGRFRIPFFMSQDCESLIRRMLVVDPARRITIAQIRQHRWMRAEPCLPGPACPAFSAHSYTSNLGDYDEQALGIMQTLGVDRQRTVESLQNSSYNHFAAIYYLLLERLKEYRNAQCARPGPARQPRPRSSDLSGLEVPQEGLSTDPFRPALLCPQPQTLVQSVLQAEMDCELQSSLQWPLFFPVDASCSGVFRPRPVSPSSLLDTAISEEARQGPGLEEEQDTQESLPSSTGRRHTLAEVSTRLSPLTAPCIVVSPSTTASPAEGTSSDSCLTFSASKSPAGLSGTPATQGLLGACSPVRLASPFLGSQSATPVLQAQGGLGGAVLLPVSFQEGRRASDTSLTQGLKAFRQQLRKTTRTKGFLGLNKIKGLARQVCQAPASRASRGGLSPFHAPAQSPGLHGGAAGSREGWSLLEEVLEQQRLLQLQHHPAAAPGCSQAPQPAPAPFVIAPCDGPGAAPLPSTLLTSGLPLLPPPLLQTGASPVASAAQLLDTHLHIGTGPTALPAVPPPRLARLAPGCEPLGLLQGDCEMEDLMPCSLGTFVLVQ
pIC50: −log10 of the molar value.
Mark class 0 for pIC50 values under 6, and class 1 for everything at or above.

molecule="Cc1ccc(Nc2ccc3ncn(-c4ccc(C(C)O)c(N(C)CC5(C#N)CC5)n4)c3c2)nn1 (stereo not drawn) [Example 172]" class_assignment="class 0"
molecule="COc1cc2ncn(-c3ccc(CO)c(N4CCCC4)n3)c2cc1OC [Example 27]" class_assignment="class 1"
molecule="Cc1ccc(Nc2ccc3c(c2)ncn3-c2nc(-n3nc(C#N)cc3C)c(C(C)O)cc2Cl)nn1 (stereo not drawn) [Example 245, formic acid]" class_assignment="class 0"
molecule="Cc1ccc(Nc2ccc3c(c2)ncn3-c2ccc(C(C)O)c(-c3cn(CC(F)(F)F)nc3C)n2)nn1 (stereo not drawn) [Example 143]" class_assignment="class 1"
molecule="Cc1cc(C(F)F)nn1-c1nc(-n2cnc3cc(F)c(Nc4ccc(Cl)nn4)cc32)ccc1C(C)O (stereo not drawn) [Example 371]" class_assignment="class 1"

Could you verify whether the entry Cc1ccc(Nc2ccc3c(c2)ncn3-c2ccc(C(C)O)c(-n3ccc(C#N)n3)n2)nn1 (stereo not drawn) [Example 115] shows pIC50 of no less than 6?
class 1

Could you verify whether the entry COc1cc(C(F)F)nn1-c1nc(-n2cnc3ccc(Nc4ccc(C)nn4)cc32)ccc1C(C)O (stereo not drawn) [Example 397] shows pIC50 of no less than 6?
class 1

Could you verify whether the entry COC(C)Cn1ncc(-c2nc(-n3cnc4cc(Nc5ccc(C)nn5)ccc43)ccc2C(C)O)c1C (stereo not drawn) [Example 279] shows pIC50 of no less than 6?
class 1

Could you verify whether the entry COc1c(O)cccc1-c1nc(-n2cnc3cc(Nc4ccc(C)nn4)ccc32)ccc1C(C)O (stereo not drawn) [Example 203, formic acid] shows pIC50 of no less than 6?
class 0

Could you verify whether the entry Cc1ccc(Nc2ccc3c(c2)ncn3-c2ccc(C(C)O)c(-n3nc(C(F)F)cc3C#N)n2)nn1 (stereo not drawn) [Example 303] shows pIC50 of no less than 6?
class 1

###

# Target Of Assay: SIK2 (Homo sapiens)
# Sequence (Q9H0K1 whole entry): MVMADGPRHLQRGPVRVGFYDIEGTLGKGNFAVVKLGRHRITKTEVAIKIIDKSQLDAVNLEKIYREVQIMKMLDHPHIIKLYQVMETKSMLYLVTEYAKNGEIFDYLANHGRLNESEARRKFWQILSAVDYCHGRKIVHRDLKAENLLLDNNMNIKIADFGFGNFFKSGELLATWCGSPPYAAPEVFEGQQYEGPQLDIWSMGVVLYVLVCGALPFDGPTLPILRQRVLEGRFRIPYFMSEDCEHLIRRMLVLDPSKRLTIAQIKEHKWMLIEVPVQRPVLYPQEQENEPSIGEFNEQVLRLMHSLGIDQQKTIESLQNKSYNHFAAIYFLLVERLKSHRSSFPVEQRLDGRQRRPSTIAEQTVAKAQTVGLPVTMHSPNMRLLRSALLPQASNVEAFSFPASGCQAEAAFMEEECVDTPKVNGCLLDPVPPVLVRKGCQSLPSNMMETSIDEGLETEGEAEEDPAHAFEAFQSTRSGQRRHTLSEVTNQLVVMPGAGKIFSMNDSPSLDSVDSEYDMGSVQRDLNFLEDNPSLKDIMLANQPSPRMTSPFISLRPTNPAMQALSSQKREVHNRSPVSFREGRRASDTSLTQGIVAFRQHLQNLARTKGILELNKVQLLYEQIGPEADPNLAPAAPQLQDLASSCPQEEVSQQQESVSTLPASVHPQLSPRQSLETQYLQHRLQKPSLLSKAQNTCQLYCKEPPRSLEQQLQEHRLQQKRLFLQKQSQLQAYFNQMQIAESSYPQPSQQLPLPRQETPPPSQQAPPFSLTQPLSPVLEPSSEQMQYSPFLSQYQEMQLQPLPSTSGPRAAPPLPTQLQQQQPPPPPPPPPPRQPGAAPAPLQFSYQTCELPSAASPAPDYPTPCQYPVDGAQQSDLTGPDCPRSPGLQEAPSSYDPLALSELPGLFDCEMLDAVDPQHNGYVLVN
pIC50: −log10 of the molar value.
Mark not fulfilled for pIC50 values under 8, and fulfilled for everything at or above.

Here's what some known entries look like.
compound="Cc1cc(C#N)nn1-c1nc(-n2cnc3cc(OC4CCN(C5COC5)CC4)ccc32)ccc1C(C)O (stereo not shown)" class_assignment="not fulfilled"
compound="Cc1ccc(Nc2ccc3c(c2)ncn3-c2ccc(C(C)O)c(-c3nn(CC(F)(F)F)nc3C)n2)nn1 (stereo not shown)" class_assignment=fulfilled
compound="Cc1cc(C#N)nn1-c1nc(-n2cnc3cc(Nc4cc5c(nn4)CCC5)c(F)cc32)ccc1C(C)O (stereo not shown)" class_assignment=fulfilled
compound="Cc1cc(C#N)nn1-c1nc(-n2cnc3cc(N4CCCC45COC5)ccc32)ccc1C(C)O (stereo not shown)" class_assignment="not fulfilled"

Could you verify whether the entry Cc1ccc(Nc2ccc3c(c2)ncn3-c2ccc(C(C)O)c(O[C@H]3CCNC3)n2)nn1 (stereo partly shown) shows pIC50 of no less than 8?
not fulfilled

###

# Target Of Assay: UniProt Q9Y2K2
# Sequence (Q9Y2K2 whole entry): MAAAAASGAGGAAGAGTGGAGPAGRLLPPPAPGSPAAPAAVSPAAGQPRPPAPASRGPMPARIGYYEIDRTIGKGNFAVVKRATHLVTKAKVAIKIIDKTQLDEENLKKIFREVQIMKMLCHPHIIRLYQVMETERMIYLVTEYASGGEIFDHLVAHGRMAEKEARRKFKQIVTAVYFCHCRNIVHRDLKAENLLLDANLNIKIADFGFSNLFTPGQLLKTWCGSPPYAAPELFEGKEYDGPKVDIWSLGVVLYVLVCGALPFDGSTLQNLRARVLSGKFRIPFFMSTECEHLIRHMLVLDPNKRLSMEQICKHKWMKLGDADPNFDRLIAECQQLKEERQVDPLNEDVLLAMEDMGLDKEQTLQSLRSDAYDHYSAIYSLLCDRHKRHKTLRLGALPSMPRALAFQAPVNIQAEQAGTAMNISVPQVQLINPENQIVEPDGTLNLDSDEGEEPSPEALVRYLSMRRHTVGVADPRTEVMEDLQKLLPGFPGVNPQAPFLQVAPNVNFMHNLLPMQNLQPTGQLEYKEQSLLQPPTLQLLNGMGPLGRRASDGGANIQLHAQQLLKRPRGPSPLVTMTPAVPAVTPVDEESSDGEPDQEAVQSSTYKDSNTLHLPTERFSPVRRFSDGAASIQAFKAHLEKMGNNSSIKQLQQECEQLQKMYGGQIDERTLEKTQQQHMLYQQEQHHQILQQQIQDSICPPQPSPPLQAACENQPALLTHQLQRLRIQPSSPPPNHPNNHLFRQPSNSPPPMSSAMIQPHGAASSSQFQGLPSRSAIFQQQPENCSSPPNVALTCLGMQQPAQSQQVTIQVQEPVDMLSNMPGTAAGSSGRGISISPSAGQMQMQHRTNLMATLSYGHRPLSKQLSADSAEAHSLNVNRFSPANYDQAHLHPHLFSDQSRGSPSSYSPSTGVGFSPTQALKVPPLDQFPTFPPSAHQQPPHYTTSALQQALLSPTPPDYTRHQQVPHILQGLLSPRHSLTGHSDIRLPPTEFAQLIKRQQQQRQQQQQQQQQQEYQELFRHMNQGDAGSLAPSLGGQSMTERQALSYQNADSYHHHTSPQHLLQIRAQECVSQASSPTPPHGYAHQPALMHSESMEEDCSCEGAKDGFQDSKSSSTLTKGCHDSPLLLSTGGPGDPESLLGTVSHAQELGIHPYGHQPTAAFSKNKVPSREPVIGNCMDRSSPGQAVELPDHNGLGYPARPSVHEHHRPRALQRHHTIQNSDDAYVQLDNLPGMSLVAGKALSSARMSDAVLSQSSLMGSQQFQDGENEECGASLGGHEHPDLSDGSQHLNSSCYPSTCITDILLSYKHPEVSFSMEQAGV
Endpoint Label: IC50 (nM)
Just the number in nM, nothing appended.

Some entries whose results are on file:
compound="CCc1cc(C(F)F)nn1-c1nc(-n2cnc3ccc(Nc4ccc(C)nn4)cc32)ccc1C(C)O (stereo not drawn) [Example 368]" target_of_assay="UniProt Q9Y2K2" test_result=1100
compound="Cc1ccc(Nc2ccc3c(c2)ncn3-c2ccc(C(C)O)c(N3CC(C(F)F)C4(CC4)C3)n2)nn1 (stereo not drawn) [Example 325]" target_of_assay="UniProt Q9Y2K2" test_result=3.4

Here is the next item to consider.
State the recorded IC50 for this entry: Cc1cc(C#N)nn1-c1nc(-n2cnc3cc(Nc4ccc(C(F)(F)F)nn4)ccc32)ccc1C(C)O (stereo not drawn) [Example 249]
0.8

###

# Target Of Assay: SIK2 (Homo sapiens)
pIC50: −log10 of the molar value.
Mark Not satisfied for pIC50 values under 8, and Satisfied for everything at or above.

Here's what some known entries look like.
compound="Cc1cc(C#N)nn1-c1nc(-n2cnc3cc(-c4ccn(C)c(=O)n4)ccc32)ccc1C(C)O (stereo not shown)" class_assignment="Not satisfied"
compound=Cc1ccc(Nc2ccc3ncn(-c4ccc([C@H](C)O)c(-n5nc(C#N)cc5C)n4)c3c2)nn1 class_assignment="Not satisfied"
compound=Cc1ccc(Nc2cc3ncn(-c4ccc([C@H](C)O)c(-n5nc(C(F)F)cc5C)n4)c3cc2F)nn1 class_assignment=Satisfied
compound="Cc1ccc(Nc2cc3ncn(-c4ccc(C(C)O)c(-c5cn(CC(F)(F)F)nc5C)n4)c3cc2F)nn1 (stereo not shown)" class_assignment=Satisfied
compound="Cc1ccc(Nc2cc3ncn(-c4ccc(C(C)O)c(-n5nc(C#N)cc5C)n4)c3cc2OC2CCNC2)nn1 (stereo not shown)" class_assignment=Satisfied
compound="CC(O)c1ccc(-n2cnc3cc(OCCN4CCOCC4)ccc32)nc1Oc1ccccc1 (stereo not shown)" class_assignment="Not satisfied"
compound="Cc1nnc(Nc2ccc3c(c2)ncn3-c2ccc(C(C)O)c(-n3nc(C#N)cc3C)n2)o1 (stereo not shown)" class_assignment="Not satisfied"
compound="Cc1ccc(Nc2ccc3c(c2)ncn3-c2nc(-n3nc(C#N)cc3C)c(C(C)O)cc2Cl)nn1 (stereo not shown)" class_assignment="Not satisfied"

Could you verify whether the entry Cc1ccc(Nc2ccc3c(c2)ncn3-c2ccc(C(C)O)c(-c3cnn4c3C(=O)NCC4)n2)nn1 (stereo not shown) shows pIC50 of no less than 8?
Not satisfied

Could you verify whether the entry Cc1ccc(Nc2ccc3ncn(-c4ccc(C(C)O)c(N5CC[C@@H](C#N)C5)n4)c3c2)nn1 (stereo partly shown) shows pIC50 of no less than 8?
Not satisfied

Could you verify whether the entry COc1cc(C(F)F)nn1-c1nc(-n2cnc3cc(Nc4ccc(C)nn4)ccc32)ccc1C(C)O (stereo not shown) shows pIC50 of no less than 8?
Satisfied

Could you verify whether the entry CNc1ncccc1-c1nc(-n2cnc3cc(Nc4ccc(C)nn4)ccc32)ccc1C(C)O (stereo not shown) shows pIC50 of no less than 8?
Not satisfied

Could you verify whether the entry Cc1ccc(Nc2ccc3c(c2)ncn3-c2ccc(C(C)O)c(-c3c(C)noc3C)n2)nn1 (stereo not shown) shows pIC50 of no less than 8?
Not satisfied
